# Tested on: Ba/F3 ROS1 (CD74) S1986F-G2032R
# METHOD_SUMMARY: Antiproliferation assay
# Assay type: cell-based
# CONDITION_LABEL: Mus musculus, BaF3; Ba/F3 cell line
# Experimental: Ba/F3 immortalized murine bone marrow–derived pro-B cells were obtained from Creative Biogene (Shirley, NY) and cultured in RPMI supplemented with 10% FBS and IL3 (0.5 ng/mL). […] To assess the 72 h effect of drug treatment on cell proliferation, 2000 to 3000 cells were plated in replicates of three in 96-well plates. […] Luminescence was measured on a multiplate reader and analyzed. […] IC50 values were determined using a nonlinear regression model with a sigmoidal dose response in GraphPad. […]
EXPERIMENTAL_ENDPOINT: IC50 (nM)

MOLECULE	EXPERIMENTAL_VALUE
C[C@H]1Oc2cc(cnc2N)-c2c(nn(C)c2C#N)CN(C)C(=O)c2ccc(F)cc21	503
COc1cc(N2CCC(N3CCN(C)CC3)CC2)ccc1Nc1ncc(Cl)c(Nc2ccccc2P(C)(C)=O)n1	488
C[C@H]1CNC(=O)c2cnn3ccc(nc23)N[C@H](C)c2cc(F)ccc2O1	31.4
COc1cc(N2CCC(N3CCN(CC4CCN(c5ccc6c(c5)CN(C5CCC(=O)NC5=O)C6=O)CC4)CC3)CC2)ccc1Nc1ncc(Cl)c(Nc2ccccc2P(C)(C)=O)n1 (stereo not shown)	49.5
